Test: Drug uptake in human HCT-116 cells xenografted in BomTac:NMRI-Foxn1nu mouse at 35 mg/kg, iv measured after 8 hrs by HPLC-MS/MS analysis
Format: ADME, organism-based, Neoplasm
Settings: tumour (HCT-116 xenograft)
assay_endpoint: concentration at 8 h

[
  {
    "molecular_string": "CC[C@@H]1C(=O)N(C)c2cnc(Nc3ccc(C(=O)N[C@H]4CC[C@H](N5CCN(CC6CC6)CC5)CC4)cc3OC)nc2N1C(C)C",
    "result": "32 µM"
  }
]

###

Assay: AUC (0-24hrs) in BomTac:NMRI-Foxn1nu mouse at 50 mg/kg, po by HPLC-MS/MS analysis
Assay type: ADME, organism-based
Conditions: in vivo

[
  {
    "molecule": "CC[C@@H]1C(=O)N(C)c2cnc(Nc3ccc(C(=O)N[C@H]4CC[C@H](N5CCN(CC6CC6)CC5)CC4)cc3OC)nc2N1C(C)C [VOLASERTIB]",
    "AUC(0-t) / µM·h": 58
  }
]

###

Test: AUC (0 to 24 hrs) in human HCT-116 cells xenografted in BomTac:NMRI-Foxn1nu mouse at 20 mg/kg, iv administered twice a week upto 6 weeks by HPLC-MS/MS analysis
Assay type: ADME, organism-based
Conditions: in vivo, 1008 h
assay_endpoint: AUC (µM·h)

[
  {
    "molecular_string": "CC[C@@H]1C(=O)N(C)c2cnc(Nc3ccc(C(=O)N[C@H]4CC[C@H](N5CCN(CC6CC6)CC5)CC4)cc3OC)nc2N1C(C)C",
    "readout_number": 66
  }
]

###

Test: Oral bioavailability in Wistar rat at 30 mg/kg by HPLC-MS/MS analysis
Type: ADME, organism-based
Settings: in vivo
assay_endpoint: bioavailability (%)

[
  {
    "molecular_string": "CC[C@@H]1C(=O)N(C)c2cnc(Nc3ccc(C(=O)N[C@H]4CC[C@H](N5CCN(CC6CC6)CC5)CC4)cc3OC)nc2N1C(C)C",
    "unit_info": "%",
    "readout_number": 55
  }
]
